Listed compounds paired with reported GI50
System: HOP-92
protocol_text: NCI tumour cell line growth inhibition, 48 h
Calls of active or inactive are those of the source. Rule as the data show it: active = GI50 up to about 1.1 µM and inactive = higher.
quantity: GI50

INSERT INTO results (compound, quantity, value_observed) VALUES
  ('CO/C=C/c1cc2c(cc1C(OC)OC)OCO2', 'GI50', '40.2 µM (inactive)'),
  ('Nc1nc(Cl)nc2c1ncn2C1CCC(COP(=O)(O)OP(=O)(O)OP(=O)(O)O)O1 (stereo not drawn)', 'GI50', '23.7 µM (inactive)'),
  ('Cc1c(C)c(C)n(C2OC(CO)C(O)C(O)C2O)c(=S)c1C#N (stereo not drawn)', 'GI50', '> 100 µM (inactive)');
